Where these numbers come from: the MegaScale stability set (Tsuboyama et al. 2023)

B1: r16_88_TrROS_Hall (parent)
chain: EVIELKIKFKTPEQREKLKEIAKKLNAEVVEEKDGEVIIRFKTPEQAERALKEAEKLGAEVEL

# Variants of: B1
# Run Description: folding stability dG (cDNA display proteolysis); higher = more stable
# Condition Set: PBS, room temperature
Assay Readout: folding stability dG

E28S | 17.2 kJ/mol
A50S | 16.3 kJ/mol
I21Q | 17 kJ/mol
